All figures here come from ChEMBL document CHEMBL3507680.

Property: cytotoxicity at 70.5 h; scope: individual compounds
assay: Human HepG2 cell viability assay in 384 well format; format: toxicity, cell-based; parameters: dose 125 nL, time 70.5 hour; concentration not given beside the values; conditions: HepG2 cells, read-out: Inhibition
Report as a plain number; the unit % is understood.

Solved cases (3 shown):
{"columns": ["COMPOUND", "cytotoxicity at 70.5 h, %"],
 "data": [
  ["CN1CC(=O)N(c2cnn(C)c2)CC12CCN(Cc1ccccc1)C2 (stereo not given)", 0.248],
  ["CC(C)N1CCc2ncn(C)c2C1C(=O)N1CCOCC1 (stereo not given)", 5.22],
  ["CNC(=O)[C@H]1C[C@@H]2CN(C(=O)c3ccc(C)nc3)C[C@@H]2N1C(C)C", -9.38]
]}

Reported cytotoxicity at 70.5 h, compound "O=C(Cc1cc(-c2ccc3c(c2)OCCO3)on1)NCc1ccccn1" : ____ -10.7

Reported cytotoxicity at 70.5 h, compound "Cc1cc(-c2nn(C)c(Cl)c2CN2CCC3(CC2)[C@H](O)C[C@@H]3O)no1" : ____ -4.3

Reported cytotoxicity at 70.5 h, compound COCCS(=O)(=O)NCC(C)c1cccc(C)c1 (stereo not given) : ____ -3.93

Reported cytotoxicity at 70.5 h, compound "Cc1ccc(OC2(C(=O)O)CCN(C(=O)CCc3ccco3)CC2)cn1" : ____ -0.99

Reported cytotoxicity at 70.5 h, compound COCCN1CCC2(CCCN(C(=O)c3cnoc3C)C2)C1=O (stereo not given) : ____ -0.05

Reported cytotoxicity at 70.5 h, compound CNC(=O)C(NC(=O)c1nccn2ccnc12)c1ccc(F)c(F)c1 (stereo not given) : ____ -1.99

Reported cytotoxicity at 70.5 h, compound "c1cnc(NCCCOC2CCOCC2)nc1" : ____ 4.17

###

Property: cytotoxicity at 70.5 h; scope: individual molecules
assay: Human HepG2 cell viability assay in 384 well format; format: toxicity, cell-based; parameters: dose 125 nL, time 70.5 hour; concentration not given beside the values; settings: HepG2 cells, read-out: Inhibition
Report as a plain number; the unit % is understood.

Solved cases (4 shown):
{"columns": ["MOLECULE", "cytotoxicity at 70.5 h [%]"],
 "data": [
  ["c1ccc(CN2C[C@H]3CCC[C@@]3(COCC3CCOCC3)C2)nc1", 0.897],
  ["Cc1cc(-c2cc3nc(C)c(C)c(NCC4COCCO4)n3n2)no1 (stereo unspecified)", -5.97],
  ["CC(=O)Nc1ccc(CNCC(O)c2ccccc2)cc1 (stereo unspecified)", -2.04],
  ["CC(C)N1CCC(NCc2cccnc2N(C)C)CC1", 2.11]
]}

Reported cytotoxicity at 70.5 h, molecule "CC(C)(C(=O)NCCCc1nc2ccccc2[nH]1)n1cc(Cl)cn1" : ____ -5.61

Reported cytotoxicity at 70.5 h, molecule Cc1cc(CN(C)C(=O)C2CCCN(C(=O)c3cccs3)C2)no1 (stereo unspecified) : ____ -10.3

Reported cytotoxicity at 70.5 h, molecule C1CC(c2noc(C3CC3)n2)N(Cc2nc(C3CC3)no2)C1 (stereo unspecified) : ____ -10.7

Reported cytotoxicity at 70.5 h, molecule c1cnc(N2CCC3(COCc4cnc(-c5cccnc5)nc43)C2)nc1 (stereo unspecified) : ____ 19.5

Reported cytotoxicity at 70.5 h, molecule "O=C(Nc1cccs1)N1CC(c2nc(C3CC3)no2)C1" : ____ -5.71

Reported cytotoxicity at 70.5 h, molecule "CCc1ncnc2c1CCN(Cc1cccs1)CC2" : ____ -7.19

Reported cytotoxicity at 70.5 h, molecule "CCCN(CCc1ccccn1)C(=O)Cn1cc(C)cn1" : ____ -4.61

###

Property: cytotoxicity at 70.5 h; scope: individual compounds
assay: Human HepG2 cell viability assay in 384 well format; format: toxicity, cell-based; parameters: dose 125 nL, time 70.5 hour; concentration not given beside the values; conditions: HepG2 cells, read-out: Inhibition

{"columns": ["COMPOUND", "cytotoxicity at 70.5 h"],
 "data": [
  ["Cc1cc(C(=O)N2CCC[C@]3(C[C@H](OCC4CC4)CO3)C2)no1", "-0.0994%"],
  ["Cc1cc(C)n(CC2CCCCN2C(=O)c2ccsc2)n1 (centres undefined)", "-2.03%"],
  ["c1cnc(N2CC3(CCN(C4CCOC4)CC3)c3ccccc32)nc1 (centres undefined)", "-6.16%"]
]}

Reported cytotoxicity at 70.5 h, compound "CO[C@@H]1CO[C@@]2(CCCN(C(=O)N3CCCC3)C2)C1" : ____ 0.448%

###

Property: cytotoxicity at 70.5 h; scope: individual compounds
experiment: Human HepG2 cell viability assay in 384 well format; format: toxicity, cell-based; set-up: dose 125 nL, time 70.5 hour; concentration not given beside the values; conditions: HepG2 cells, read-out: Inhibition
Express your answer as a number followed by its unit.

Solved cases (5 shown):
{"columns": ["COMPOUND", "cytotoxicity at 70.5 h"],
 "data": [
  ["O=C(Cc1ccccn1)N1C[C@H](OCc2cccnc2)[C@H]2COC[C@H]21", "0.247%"],
  ["O=C(CCc1ccncc1)NCc1csc(Br)c1", "-7.74%"],
  ["CC(NC(=O)c1ccc2c(c1)OCC(=O)N2)c1ccccc1F (stereo unspecified)", "0.146%"],
  ["COc1nccnc1N1CCN(Cc2cccc(C)c2)C(=O)C1", "7%"],
  ["O=S(=O)(NCc1ccc(S(=O)(=O)N2CCCC2)s1)c1cc(Cl)cc(Cl)c1", "-21.3%"]
]}

Reported cytotoxicity at 70.5 h, compound "Cc1cc(Br)oc1C(=O)N1CCC(N(C)C)CC1" : ____ 33.8%

Reported cytotoxicity at 70.5 h, compound c1cncc(CN2CCC3(COCCN(C4CCOCC4)C3)C2)c1 (stereo unspecified) : ____ -6.19%

Reported cytotoxicity at 70.5 h, compound "CNc1ncc(C(=O)N[C@H]2CN(CCCSC)C[C@@H]2C2CC2)cn1" : ____ -5.85%

Reported cytotoxicity at 70.5 h, compound O=C(NCCC(O)c1ccccc1)c1ccco1 (stereo unspecified) : ____ -8.79%

Reported cytotoxicity at 70.5 h, compound Cc1ccsc1CNCC1CCCN1c1cccnn1 (stereo unspecified) : ____ 19.9%

Reported cytotoxicity at 70.5 h, compound "CC(C)N(C)C[C@H]1OC[C@@H]2CCN(Cc3cccc(C#N)c3)C[C@@H]21" : ____ 14.2%

Reported cytotoxicity at 70.5 h, compound "CNC(=O)[C@H]1C[C@@H]2CN(Cc3cccnc3OC)C[C@@H]2N1C(C)C" : ____ -7.89%

Reported cytotoxicity at 70.5 h, compound "O=C(NCC1CCCCC1)N1C[C@@H]2C[C@H]1CN2" : ____ -7.03%

Reported cytotoxicity at 70.5 h, compound CN(C)CC1CN(Cc2cc(Cl)cc3cccnc23)CCO1 (stereo unspecified) : ____ -9.09%

Reported cytotoxicity at 70.5 h, compound "O=C(Cc1ccsc1)N1CCC(Cn2cc(CCO)nn2)CC1" : ____ -14.1%

Reported cytotoxicity at 70.5 h, compound "CN1CCN(C2CCN(CC(=O)NCC(F)(F)F)CC2)C1=O" : ____ -6.61%

###

Property: cytotoxicity at 70.5 h; scope: individual compounds
assay: Human HepG2 cell viability assay in 384 well format; type: toxicity, cell-based; design: dose 125 nL, time 70.5 hour; concentration not given beside the values; settings: HepG2 cells, read-out: Inhibition
Report as a plain number; the unit % is understood.

Reported cytotoxicity at 70.5 h, compound "CC(C)Cc1cc(NC(=O)c2ccc(=O)[nH]n2)n(C)n1" : ____ -2.14

Reported cytotoxicity at 70.5 h, compound COc1ccc(NC(C)c2nnnn2-c2ccccc2)cn1 (configuration not stated) : ____ -96.1

Reported cytotoxicity at 70.5 h, compound Cc1ccc(C2CN(c3nnc(C(F)F)s3)CCO2)c(C)c1 (configuration not stated) : ____ -4.44

Reported cytotoxicity at 70.5 h, compound "O=C(NC1CC1)N1CC[C@@H](O)[C@@H]1Cc1ccccc1" : ____ 0.741

Reported cytotoxicity at 70.5 h, compound "COc1ccc(-c2nc(CN3CCc4cnc(C)nc4C3)no2)cc1" : ____ -6.23

Reported cytotoxicity at 70.5 h, compound "CCc1nnc(CN(C)C[C@@H]2CCCN3CCCC[C@H]23)o1" : ____ -3.62

Reported cytotoxicity at 70.5 h, compound "Cc1c(NCCCOc2cccc(C#N)c2)cccc1C(N)=O" : ____ 6.97

Reported cytotoxicity at 70.5 h, compound CCN1CC2(CCN(CC3CCCO3)CC2)OC1=O (configuration not stated) : ____ -2.54

Reported cytotoxicity at 70.5 h, compound "O=C(c1ccncc1)N1CC[C@@H](O)[C@@H](O)[C@H](N2CCC(F)(F)CC2)C1" : ____ -0.846

Reported cytotoxicity at 70.5 h, compound O=C(CN1CCOC(c2ccc(Cl)c(Cl)c2)C1)NCc1ccco1 (configuration not stated) : ____ 3.47

Reported cytotoxicity at 70.5 h, compound Cc1nc(Nc2ncc(C)s2)cc(C2CCCN2S(C)(=O)=O)n1 (configuration not stated) : ____ -13.7

Reported cytotoxicity at 70.5 h, compound "O=C(c1ccc(Cn2cnnn2)cc1)N1CCC(c2ccncc2)CC1" : ____ -3.04

Reported cytotoxicity at 70.5 h, compound "CCOCC(=O)NS(=O)(=O)c1ccc(F)cc1C(F)(F)F" : ____ -4.87

Reported cytotoxicity at 70.5 h, compound CC(C)Sc1ccc(C(C)NC(=O)Cn2cccnc2=O)cc1 (configuration not stated) : ____ -15.1

Reported cytotoxicity at 70.5 h, compound "O=C1N[C@@H]2CCN(C(=O)C3CCCC3)[C@@H]2C(=O)N1c1ccc(F)cc1" : ____ -2.52

Reported cytotoxicity at 70.5 h, compound Cc1ccc(CN(C)C(=O)C(C)n2ccnc2C(C)C)o1 (configuration not stated) : ____ -18.9

Reported cytotoxicity at 70.5 h, compound NCc1cc(NCC(c2ccccn2)N2CCOCC2)ncn1 (configuration not stated) : ____ -6.83
